# System: Escherichia coli
# test_method_notes: microbe, parasite or virus in culture
# condition_summary: ATCC 25922
# Description: Antibacterial activity against Escherichia coli ATCC 25922 assessed as reduction in microbial growth preincubated for 20 to 24 hrs followed by subculture in absence of compound and measured on day 4 CLSI based broth microdilution susceptibility method
quantity_measured: MIC

>>> df
                               smiles_input  quantity_measured  result_value
0  CCNc1cc(F)cc2c1[nH]c1ncc(-c3cncc(C(=O)O)c3)c(-n3ccc(C(F)(F)F)n3)c12                MIC    > 16 µg/mL
1  CCNc1cc(F)cc2c1[nH]c1ncc(-c3cncc(C#N)c3)c(-n3nc(C(F)(F)F)cc3CO)c12                MIC    > 16 µg/mL
2  CCNc1cc(F)cc2c1[nH]c1ncc(-c3cncc(C#N)c3)c(-n3cc(C(=O)O)c(C(F)(F)F)n3)c12                MIC    > 16 µg/mL

====

# System: Escherichia coli
# test_method_notes: microbe, parasite or virus in culture
# condition_summary: ATCC 25922
quantity_measured: MIC (µg/mL)

                               smiles_input  target_under_test  quantity_measured  inequality_sign  result_value
0  CCNc1cc(F)cc2c1[nH]c1ncc(-c3cncc(Cc4ncco4)c3)c(-n3ccc(C(F)(F)F)n3)c12   Escherichia coli                MIC                =          0.71
1  CCNc1cc(F)cc2c1[nH]c1ncc(-c3cnc(OC)nc3)c(-n3ncc4c3CNC4)c12   Escherichia coli                MIC                =          0.81
2  CCNc1cc(F)cc2c1[nH]c1ncc(-c3cnc(C(=O)NC)nc3)c(-n3ccc(C(F)(F)F)n3)c12   Escherichia coli                MIC                <          0.25
3  CCNc1cc(F)cc2c1[nH]c1ncc(-c3cncc(CC(N)=O)c3)c(-n3ccc(C(F)(F)F)n3)c12   Escherichia coli                MIC                =             1
4  CCNc1cc(F)cc2c1[nH]c1ncc(-c3cncc(C#N)c3)c(-n3ccc(C(F)F)n3)c12   Escherichia coli                MIC                =             1
5  CCNc1cc(F)cc2c1[nH]c1ncc(-c3cncc(C#N)c3)c(-n3ccc(C(=O)O)n3)c12   Escherichia coli                MIC                >            16

====

Measured CLint scaled at 0.5 h by item
# test_method_notes: in vitro
# condition_summary: mouse, liver microsomes
# Description: Intrinsic clearance in mouse liver microsomes preincubated for 10 mins followed by NADPH regenerating system addition and measured up to 30 mins by LC/MS-MS analysis
quantity_measured: CLint scaled at 0.5 h (mL/min/kg)

>>> print(df.to_string())
                               smiles_input  unit_info  inequality_sign  result_value
0  CCNc1cc(F)cc2c1[nH]c1ncc(-c3cnc(OC)nc3)c(-n3cc(CN)c(C(F)(F)F)n3)c12  mL/min/kg                <          20.2
1  CCNc1cc(F)cc2c1[nH]c1ncc(-c3cnc(OCC)nc3)c(-n3ccc(C(F)(F)F)n3)c12  mL/min/kg                =            37
2  CCNc1cc(F)cc2c1[nH]c1ncc(-c3cncc(C#N)c3)c(-n3ncc4c3CNC4)c12  mL/min/kg                =          70.3
3  CCNc1cc(F)cc2c1[nH]c1ncc(-c3cnc(OCC(C)(C)C(=O)O)nc3)c(-n3ccc(C(F)(F)F)n3)c12  mL/min/kg                =          43.5
4  CCNc1cc(F)cc2c1[nH]c1ncc(-c3cnc([C@@H](C)O)nc3)c(-n3ccc(C(F)(F)F)n3)c12  mL/min/kg                =          57.2

====

Measured MIC by item
# Tested on: Escherichia coli
# test_method_notes: microbe, parasite or virus in culture
# condition_summary: ATCC 29213
# Description: Antibacterial activity against Escherichia coli ATCC 29213 assessed as reduction in microbial growth preincubated for 20 to 24 hrs followed by subculture in absence of compound and measured on day 4 CLSI based broth microdilution susceptibility method
quantity_measured: MIC

                                smiles_input  quantity_measured   result_value
 0  CCNc1cc(F)cc2c1[nH]c1ncc(-c3cnc(OC)nc3)c(-n3ccc(C(F)(F)F)n3)c12                MIC  < 0.016 µg/mL
 1  CCNc1cc(F)cc2c1[nH]c1ncc(-c3cnc(C(=O)O)nc3)c(-n3ccc(C(F)(F)F)n3)c12                MIC        4 µg/mL
 2  CCNc1cc(F)cc2c1[nH]c1ncc(-c3cncc(N4CCOCC4)c3)c(-n3ccc(C(F)(F)F)n3)c12                MIC   < 0.25 µg/mL
 3  CCNc1cc(F)cc2c1[nH]c1ncc(-c3cncc(CC(=O)O)c3)c(-n3ccc(C(F)(F)F)n3)c12                MIC     0.25 µg/mL
 4  CCNc1cc(F)cc2c1[nH]c1ncc(-c3cnc(C)nc3)c(-n3ccc(C(F)(F)F)n3)c12                MIC  < 0.016 µg/mL
 5  CCNc1cc(F)cc2c1[nH]c1ncc(-c3cncc(CN)c3)c(-n3ccc(C(F)(F)F)n3)c12                MIC   < 0.25 µg/mL
 6  CCNc1cc(F)cc2c1[nH]c1ncc(-c3cnc(C4(C(=O)O)CC4)nc3)c(-n3ccc(C(F)(F)F)n3)c12                MIC  < 0.016 µg/mL
 7  CCNc1cc(F)cc2c1[nH]c1ncc(-c3cncnc3)c(-n3ccc(C(F)(F)F)n3)c12                MIC  < 0.016 µg/mL
 8  CCNc1cc(F)cc2c1[nH]c1ncc(-c3cncc(C#N)c3)c(-n3ccc(N)n3)c12                MIC    0.125 µg/mL
 9  CCNc1cc(F)cc2c1[nH]c1ncc(-c3cncc(C#N)c3)c(-n3ccc(C)n3)c12                MIC   < 0.25 µg/mL
10  CCNc1cc(F)cc2c1[nH]c1ncc(-c3cncc(C(N)=O)c3)c(-n3ccc(C(F)(F)F)n3)c12                MIC  < 0.016 µg/mL
11  CCNc1cc(F)cc2c1[nH]c1ncc(-c3cnc(NCC4(C(=O)O)CC4)nc3)c(-n3ccc(C(F)(F)F)n3)c12                MIC  < 0.016 µg/mL
12  CCNc1cc(F)cc2c1[nH]c1ncc(-c3cncc(CC(N)=O)c3)c(-n3ccc(C(F)(F)F)n3)c12                MIC  < 0.125 µg/mL
13  CCNc1cc(F)cc2c1[nH]c1ncc(-c3cncc(Cc4nnn[nH]4)c3)c(-n3ccc(C(F)(F)F)n3)c12                MIC    0.444 µg/mL
14  CCNc1cc(F)cc2c1[nH]c1ncc(-c3cnc(NC)nc3)c(-n3ccc(C(F)(F)F)n3)c12                MIC  < 0.016 µg/mL
15  CCNc1cc(F)cc2c1[nH]c1ncc(-c3cncc(C(=O)NC)c3)c(-n3ccc(C(F)(F)F)n3)c12                MIC   < 0.25 µg/mL

====

Measured solubility by item
# test_method_notes: physchem
# condition_summary: PBS, pH 6.5
# Description: Solubility of compound in PBS at pH 6.5 incubated for over night by HPLC-UV based lyophilization solubility assay
quantity_measured: solubility

>>> print(df.to_string())
                                smiles_input  quantity_measured  result_value
 0  CCNc1cc(F)cc2c1[nH]c1ncc(-c3cnc(OCC(C)(C)C(=O)O)nc3)c(-n3ccc(C(F)(F)F)n3)c12         solubility     < 1 µg/mL
 1  CCNc1cc(F)cc2c1[nH]c1ncc(-c3cnc(N)nc3)c(-n3ccc(C(F)(F)F)n3)c12         solubility     7.6 µg/mL
 2  CCNc1cc(F)cc2c1[nH]c1ncc(-c3cncc(C#N)c3)c(-n3cc(CN)c(C(F)(F)F)n3)c12         solubility      90 µg/mL
 3  CCNc1cc(F)cc2c1[nH]c1ncc(-c3cnc(N4CCOCC4)nc3)c(-n3ccc(C(F)(F)F)n3)c12         solubility     < 1 µg/mL
 4  CCNc1cc(F)cc2c1[nH]c1ncc(-c3cnc(CC(=O)O)nc3)c(-n3ccc(C(F)(F)F)n3)c12         solubility       9 µg/mL
 5  CCNc1cc(F)cc2c1[nH]c1ncc(-c3cnc(C4(C(=O)O)CC4)nc3)c(-n3ccc(C(F)(F)F)n3)c12         solubility      67 µg/mL
 6  CCNc1cc(F)cc2c1[nH]c1ncc(-c3cnc(C(C)(C)O)nc3)c(-n3ccc(C(F)(F)F)n3)c12         solubility     < 1 µg/mL
 7  CCNc1cc(F)cc2c1[nH]c1ncc(-c3cncc(C#N)c3)c(-n3ccc(C(F)F)n3)c12         solubility     < 1 µg/mL
 8  CCNc1cc(F)cc2c1[nH]c1ncc(-c3cnc(NC4CCNCC4)nc3)c(-n3ccc(C(F)(F)F)n3)c12         solubility     7.6 µg/mL
 9  CCNc1cc(F)cc2c1[nH]c1ncc(-c3cncc(C#N)c3)c(-n3ccc(CC)n3)c12         solubility   < 0.3 µg/mL
10  CCNc1cc(F)cc2c1[nH]c1ncc(-c3cncc(C#N)c3)c(-n3ccc(C(F)(F)F)n3)c12         solubility   < 0.3 µg/mL
11  CCNc1cc(F)cc2c1[nH]c1ncc(-c3cnc(OCC)nc3)c(-n3ccc(C(F)(F)F)n3)c12         solubility   < 0.3 µg/mL
12  CCNc1cc(F)cc2c1[nH]c1ncc(-c3cnc(OC)nc3)c(-n3ccc(C(F)(F)F)n3)c12         solubility     < 1 µg/mL
13  CCNc1cc(F)cc2c1[nH]c1ncc(-c3cncc(C#N)c3)c(-n3nc(C(F)(F)F)c4c3CNC4)c12         solubility   < 0.3 µg/mL
14  CCNc1cc(F)cc2c1[nH]c1ncc(-c3cncc(C#N)c3)c(-c3nc(C(F)(F)F)cs3)c12         solubility     < 1 µg/mL
15  CCNc1cc(F)cc2c1[nH]c1ncc(-c3cncc(C#N)c3)c(-n3ncc4c3CNC4)c12         solubility      34 µg/mL
